So I've got a bunch of molecules here, and I need their normalised response values.
# Test system: BT-549
# protocol.details: normalised response (% of control), CellTiter-Glo; higher = more viable cells (100 = DMSO, 0 = benzethonium chloride kill control)
# stated.conditions: incubation time: 72 h
The answer is to be given in %; state only the numeric part.

Bench note: what normalised response did Oc1ncc(N(CCCl)CCCl)c(O)n1 [Uracil mustard] (1000 nM) show? 100

Bench note: what normalised response did CC[C@H](C)C(=O)O[C@H]1C[C@H](O)C=C2C=C[C@H](C)[C@H](CC[C@@H](O)C[C@@H](O)CC(=O)O)[C@H]21 [Pravastatin] (1000 nM) show? 96.3

Bench note: what normalised response did C[C@H]1C[C@@H]2[C@H]([C@@H](O)C[C@@]3(C)[C@H]2CC[C@]3(O)C(=O)CO)[C@@]2(C)C=CC(=O)C=C12 [Methylprednisolone] (10 nM) show? 101

Bench note: what normalised response did Nc1ncn([C@H]2C[C@H](O)[C@@H](CO)O2)c(=O)n1 [Decitabine] (10 nM) show? 93

Bench note: what normalised response did COc1cc2nccc(Oc3ccc(NC(=O)Nc4cc(C)on4)c(Cl)c3)c2cc1OC [Tivozanib] (1000 nM) show? 111

###

# System: BT-549
# protocol.details: normalised viability (% of control), CellTiter-Blue; higher = more viable cells (about 100 = DMSO control)
# stated.conditions: 10 nM; incubation time: 72 h
So I've got a bunch of molecules here, and I need their normalised viability values.
The answer is to be given in %; state only the numeric part.

Request - read-out normalised viability | tested on BT-549 | molecule Oc1ncc(N(CCCl)CCCl)c(O)n1 [Uracil mustard] 93.4

Request - read-out normalised viability | tested on BT-549 | molecule CCCCC(=O)OCC(=O)[C@]1(O)Cc2c(O)c3c(c(O)c2[C@@H](O[C@H]2C[C@H](NC(=O)C(F)(F)F)[C@H](O)[C@H](C)O2)C1)C(=O)c1c(OC)cccc1C3=O [Valrubicin] 82.4

Request - read-out normalised viability | tested on BT-549 | molecule Cc1ccc(-c2cc(C(F)(F)F)nn2-c2ccc(S(N)(=O)=O)cc2)cc1 [Celecoxib] 86.6

Request - read-out normalised viability | tested on BT-549 | molecule O=C(O)C(=O)O.[NH-][C@@H]1CCCC[C@H]1[NH-].[Pt+2] [Oxaliplatin] 93.9

Request - read-out normalised viability | tested on BT-549 | molecule O=C(O)C1(C(=O)O)CCC1.[NH2-].[NH2-].[Pt+2] [Carboplatin] 83.4

Request - read-out normalised viability | tested on BT-549 | molecule CCc1cncnc1N1CCN(Cc2nc3ccc(C(F)(F)F)cc3[nH]2)CC1 78.4

Request - read-out normalised viability | tested on BT-549 | molecule C1CN1c1nc(N2CC2)nc(N2CC2)n1 [Triethylenemelamine] 105

Request - read-out normalised viability | tested on BT-549 | molecule CC[C@H](Nc1ncnc2[nH]cnc12)c1nc2cccc(F)c2c(=O)n1-c1ccccc1 [CAL-101] 100

###

# Test system: MDA-MB-468
# protocol.details: normalised response (% of control), CellTiter-Glo; higher = more viable cells (100 = DMSO, 0 = benzethonium chloride kill control)
# stated.conditions: incubation time: 72 h
property.label: normalised response (%)
The answer is to be given in %; state only the numeric part.

Request - read-out normalised response | tested on MDA-MB-468 | compound CNC(=O)c1cc(Oc2ccc(NC(=O)Nc3cc(C(C)(C)C)nn3-c3ccc4ncccc4c3)c(F)c2)ccn1 [Rebastinib] (100 nM) 113

Request - read-out normalised response | tested on MDA-MB-468 | compound O=C(O)CCCCC(CCSCc1ccccc1)SCc1ccccc1 (configuration not stated) [CPI-613] (1000 nM) 108

Request - read-out normalised response | tested on MDA-MB-468 | compound CC[C@H](C)C(=O)O[C@H]1C[C@H](O)C=C2C=C[C@H](C)[C@H](CC[C@@H](O)C[C@@H](O)CC(=O)O)[C@H]21 [Pravastatin] (1 nM) 99.9

Request - read-out normalised response | tested on MDA-MB-468 | compound CC[C@H](Nc1ncnc2[nH]cnc12)c1nc2cccc(F)c2c(=O)n1-c1ccccc1 [GS-1101] (1 nM) 93.4

Request - read-out normalised response | tested on MDA-MB-468 | compound CCN(CC)CCCC(C)Nc1c2ccc(Cl)cc2nc2ccc(OC)cc12 (configuration not stated) [Mepacrine] (5 nM) 100

Request - read-out normalised response | tested on MDA-MB-468 | compound CCN(CC)CCCC(C)Nc1c2ccc(Cl)cc2nc2ccc(OC)cc12 (configuration not stated) [Mepacrine] (5000 nM) 94.4

Request - read-out normalised response | tested on MDA-MB-468 | compound Nc1nc(F)nc2c1ncn2[C@@H]1O[C@H](CO)[C@@H](O)[C@@H]1O [Fludarabine] (1 nM) 103

###

# Test system: SK-BR-3
# protocol.details: normalised viability (% of control), CellTiter-Blue; higher = more viable cells (100 = DMSO, 0 = benzethonium chloride kill control)
# stated.conditions: 1 nM; incubation time: 72 h
property.label: normalised viability (%)
The answer is to be given in %; state only the numeric part.

Request - read-out normalised viability | tested on SK-BR-3 | compound Nc1nc(F)nc2c1ncn2[C@@H]1O[C@H](CO)[C@@H](O)[C@@H]1O [Fludarabine] 98.7

Request - read-out normalised viability | tested on SK-BR-3 | compound N#Cc1ccc(C(c2ccc(C#N)cc2)n2cncn2)cc1 [Letrozole] 86.8

Request - read-out normalised viability | tested on SK-BR-3 | compound C[C@H]1C[C@@H]2[C@H]([C@@H](O)C[C@@]3(C)[C@H]2CC[C@]3(O)C(=O)CO)[C@@]2(C)C=CC(=O)C=C12 [Methylprednisolone] 92.2

Request - read-out normalised viability | tested on SK-BR-3 | compound COc1cc([C@@H]2c3cc4c(cc3[C@@H](O[C@@H]3O[C@@H]5CO[C@@H](c6cccs6)O[C@H]5[C@H](O)[C@H]3O)[C@H]3COC(=O)[C@H]23)OCO4)cc(OC)c1O [Teniposide] 97.2

Request - read-out normalised viability | tested on SK-BR-3 | compound CCN(CC)CCCC(C)Nc1c2ccc(Cl)cc2nc2ccc(OC)cc12 (stereo unspecified) [Mepacrine] 101

Request - read-out normalised viability | tested on SK-BR-3 | compound Oc1ncc(N(CCCl)CCCl)c(O)n1 [Uracil mustard] 97.3

###

# Test system: HDQ-P1
# protocol.details: normalised response (% of control), CellTiter-Glo; higher = more viable cells (100 = DMSO, 0 = benzethonium chloride kill control)
# stated.conditions: incubation time: 72 h
So I've got a bunch of molecules here, and I need their normalised response values.
The answer is to be given in %; state only the numeric part.

Bench note: what normalised response did O=C(O)C(=O)O.[NH-][C@@H]1CCCC[C@H]1[NH-].[Pt+2] [Oxaliplatin] (1000 nM) show? 106

Bench note: what normalised response did CC[C@H](C)C(=O)O[C@H]1C[C@H](O)C=C2C=C[C@H](C)[C@H](CC[C@@H](O)C[C@@H](O)CC(=O)O)[C@H]21 [Pravastatin] (1 nM) show? 103

Bench note: what normalised response did CCCCC(=O)OCC(=O)[C@]1(O)Cc2c(O)c3c(c(O)c2[C@@H](O[C@H]2C[C@H](NC(=O)C(F)(F)F)[C@H](O)[C@H](C)O2)C1)C(=O)c1c(OC)cccc1C3=O [Valrubicin] (5 nM) show? 95.5

Bench note: what normalised response did Nc1ccccc1NC(=O)c1ccc(CNC(=O)OCc2cccnc2)cc1 [Entinostat] (10 nM) show? 97.5

Bench note: what normalised response did C=CC(=O)Nc1cc2c(Nc3ccc(F)c(Cl)c3)ncnc2cc1OCCCN1CCOCC1 [Canertinib] (1 nM) show? 98.8

Bench note: what normalised response did Cc1cnc(NC(=O)Nc2cc(Br)c(C)cc2OC[C@@H]2CNCCO2)cn1 [Rabusertib] (1 nM) show? 90.4

Bench note: what normalised response did CC[C@@H]1C(=O)N(C)c2cnc(Nc3ccc(C(=O)NC4CCN(C)CC4)cc3OC)nc2N1C1CCCC1 [BI 2536] (0.1 nM) show? 95.7

###

# System: Hs578T
# protocol.details: drug sensitivity score (DSS), CellTiter-Blue viability (DSS (AUC-based score)); higher = stronger viability inhibition; extreme values may be limits of the assay
# stated.conditions: incubation time: 72 h
So I've got a bunch of compounds here, and I need their drug sensitivity score values.

Bench note: what drug sensitivity score did Nc1nc(F)nc2c1ncn2[C@@H]1O[C@H](CO)[C@@H](O)[C@@H]1O [Fludarabine] show? 0

Bench note: what drug sensitivity score did CC[C@H](Nc1ncnc2[nH]cnc12)c1nc2cccc(F)c2c(=O)n1-c1ccccc1 [CAL-101] show? 0

Bench note: what drug sensitivity score did O=C(O)C1(C(=O)O)CCC1.[NH2-].[NH2-].[Pt+2] [Carboplatin] show? 0

Bench note: what drug sensitivity score did C1CN1c1nc(N2CC2)nc(N2CC2)n1 [Triethylenemelamine] show? 0

Bench note: what drug sensitivity score did N#Cc1ccc(C(c2ccc(C#N)cc2)n2cncn2)cc1 [Letrozole] show? 0

Bench note: what drug sensitivity score did Nc1ccccc1NC(=O)c1ccc(CNC(=O)OCc2cccnc2)cc1 [Entinostat] show? 2.77

Bench note: what drug sensitivity score did NCCCNCCSP(=O)(O)O [Amifostine] show? 0

Bench note: what drug sensitivity score did C=CC(=O)Nc1cc2c(Nc3ccc(F)c(Cl)c3)ncnc2cc1OCCCN1CCOCC1 [Canertinib] show? 4.83

Origin of values: the supplement of paper PMC4862054
